Biological target: T1, human IL-2Rβ (human, UniProt P14784 27-240, limits assumed)
T1 construct: recombinant protein, coated or immobilised; also called hu IL-2R; IL-2R beta
T1 sequence: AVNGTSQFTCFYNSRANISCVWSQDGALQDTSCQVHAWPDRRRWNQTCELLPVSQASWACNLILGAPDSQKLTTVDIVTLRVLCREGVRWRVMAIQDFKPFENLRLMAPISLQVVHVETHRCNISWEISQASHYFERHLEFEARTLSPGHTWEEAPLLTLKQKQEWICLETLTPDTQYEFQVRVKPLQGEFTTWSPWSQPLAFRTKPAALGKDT
Test: P.E. ELISA, coated protein
The binders listed here are annotated with their P.E. binding ELISA OD.
Give a bare numeral; the unit OD450 nm is implied.

FJ1427_P035MP02E03 (VHH, soluble VHH in periplasmic extract; also called clone nr) VHH: EVQLVESGGGSVQTGGSLRLSCVVSGSHFISDVMGWYRQVPGKQRELVADMADGGSVKYGDSVKGRFTILRDSVKNTVTLQMSSLNPEDTGVYYCKAGLWITGRHFDYWGQGTQVTVTS :: 0.242
FJ1427_P035MP02H08 (VHH, soluble VHH in periplasmic extract; also called clone nr; 160) VHH: EVQLVESGGGLVQAGDSLRISCAASGRIFSNYAMGWFRQAPGKETEFVAGITHLTSTTHYADSVKGRFTISRDNAKNTMHLQMNNLKPEDTALYYCAADRNIKITADWSYWGQGTQVTVAS :: 0.885
FJ1427 P035MP02G08 (VHH, soluble VHH in periplasmic extract; also called clone nr) VHH: QVQLVESGGGLVQAGGSLRLSCTVSGDVFVRYTMAWFRQAPGKEREFVASVTDSGRTTEYVHSVRGRFTVSRDNAKNTVYLQMNNLKPEDTAVYYCAANTDYFRIRSLDANTWGQGTQVTVSS :: 0.441
FJ1427_P035MP03F12 (VHH, soluble VHH in periplasmic extract; also called 22-MP03F12; clone nr) VHH: EVQLVESGGGLVQAGGSLRLSCAASGSIFSINAMAWFRQVPGMERELVAAISRDGGASVYRDSVKGRFTISRDNSKNTVYLQMNTLKPEDTAIYVCAATRAIGWTARWITTDFDFWGQGTQVTVSS :: 0.781
FJ1427_P035MP02B03 (VHH, soluble VHH in periplasmic extract; also called clone nr) VHH: QVQLVESGGGLVQTGGSLRLSCAASGSRFVSDFMGWYRQVPGKQRELVADMADGGSARYGDSVKGRFTILRDSGNSTAYLQMSSLKPEDTGVYYCKAGLWIAGRHFDYWGQGTQVTVSS :: 0.383

Reported P.E. binding ELISA OD ( FJ1427 P035MP02F02 (VHH, soluble VHH in periplasmic extract; also called clone nr; 110) VHH: EVQLVESGGGLVQAGGSLRLACALSGDVFVRYTMAWFRQAPGKEREFVASVTDSGRTTDYVASVQGRFTVSRDNNKNTVYLQMNSLKPEDTAVYYCAANTDYFQIRSLDRNTWGQGTQVTVSS ) = 0.684

Reported P.E. binding ELISA OD ( FJ1427 P035MP02E06 (VHH, soluble VHH in periplasmic extract; also called 15-MP02E06; clone nr) VHH: QVQLVESGGGSVQPGGSLRLSCAASGFTFSNYAMSWVRQAPGKGLEWVASITGFGRGTDYADSVKGRFTISRDNAEDTLYLQMNSLKPEDTAVYYCAKYSSSTYYPPTPARGRDYRGQGTQVTVSS ) = 0.581

Reported P.E. binding ELISA OD ( FJ1427 P035MP02D08 (VHH, soluble VHH in periplasmic extract; also called clone nr) VHH: EVQLVESGGGLVQAGGSLRLSCVVSGDVFVRYTMAWFRQAPGKEREFVTSITDSGRTTEYVDSVKGRFTVSRDNAKNTVYLQMNNLKPEDTAVYYCAANTDYFRIRSLDANTWGQGTQVTVSS ) = 0.905
